- testedTarget: Recombinant Human DLL4 (delta-like protein 4) (human) (UniProt Q9NR61)
- testDescription: ELISA, DLL4 coated on plate, Fab at 25 nM (2-fold dilution series), absorbance at 450 nm
# ELISA signal per entry

{"binder": "Fab VH5-51_IGHD5-18*01>3_IGHJ4*01 G100K/G104T G24T/S28R/G35V Y105N & V3-4_IGLJ1*01 (wildtype) (Fab, V domains shown) VH: EVQLVQSGAEVKKPGESLKISCKTSGYRFTSYWIVWVRQMPGKGLEWMGIIYPGDSDTRYSPSFQGQVTISADKSISTAYLQWSSLKASDTAMYYCARRKYSYTNDYFDYWGQGTLVTVSS VL: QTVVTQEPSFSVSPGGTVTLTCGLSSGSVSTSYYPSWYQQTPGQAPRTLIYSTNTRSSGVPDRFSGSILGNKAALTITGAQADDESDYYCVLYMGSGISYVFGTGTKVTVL", "ELISA signal": 0.19}
{"binder": "Fab VH5-51_IGHD5-18*01>3_IGHJ4*01 G100K/G104T G24L/S28R/G35V Y105H & V3-4_IGLJ1*01 (wildtype) (Fab, V domains shown) VH: EVQLVQSGAEVKKPGESLKISCKTSGYRFTSYWIVWVRQMPGKGLEWMGIIYPGDSDTRYSPSFQGQVTISADKSISTAYLQWSSLKASDTAMYYCARRKYSYTHDYFDYWGQGTLVTVSS VL: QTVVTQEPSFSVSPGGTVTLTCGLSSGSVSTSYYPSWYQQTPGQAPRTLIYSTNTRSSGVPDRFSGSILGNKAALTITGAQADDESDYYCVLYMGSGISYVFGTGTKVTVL", "ELISA signal": 0.19}
{"binder": "Fab VH5-51_IGHD5-18*01>3_IGHJ4*01 G100K/G104T G24A/S28R/G35V Y107F & V3-4_IGLJ1*01 (wildtype) (Fab, V domains shown) VH: EVQLVQSGAEVKKPGESLKISCKTSGYRFTSYWIVWVRQMPGKGLEWMGIIYPGDSDTRYSPSFQGQVTISADKSISTAYLQWSSLKASDTAMYYCARRKYSYTYDFFDYWGQGTLVTVSS VL: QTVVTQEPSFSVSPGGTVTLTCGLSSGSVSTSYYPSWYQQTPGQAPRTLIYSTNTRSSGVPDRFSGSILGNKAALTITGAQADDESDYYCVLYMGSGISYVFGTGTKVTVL", "ELISA signal": 0.2}
{"binder": "Fab VH5-51_IGHD5-18*01>3_IGHJ4*01 G100K/G104T G24L/S28R/G35V D109Q & V3-4_IGLJ1*01 (wildtype) (Fab, V domains shown) VH: EVQLVQSGAEVKKPGESLKISCKTSGYRFTSYWIVWVRQMPGKGLEWMGIIYPGDSDTRYSPSFQGQVTISADKSISTAYLQWSSLKASDTAMYYCARRKYSYTYDYFQYWGQGTLVTVSS VL: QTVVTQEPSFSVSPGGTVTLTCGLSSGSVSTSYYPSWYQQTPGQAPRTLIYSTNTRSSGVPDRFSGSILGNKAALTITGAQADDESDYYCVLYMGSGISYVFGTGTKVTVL", "ELISA signal": 0.22}
